Tested on: A673/TR/shEF
Experiment Summary: cell viability (LOESS-normalised, relative to median of negative controls) (log2 ratio); higher = more viable cells (less compound effect), active = hit call of the paper (over 3 MAD below the median)
Conditions Used: 8.3 µM; library screen: screen3; EWS-FLI1 expression: low (doxycycline-induced shRNA knockdown); treatment time: 72 h
The whole screen tested about 3,200 compounds, of which about 300 (9.4%) showed activity. The sample holds actives, similar compounds and a random draw of the others, so the mix is not that of the screen.
Outcome codes: YES = active, NO = inactive

{"Compound": "CC1=C2C[C@H]3[C@@H](CC=C4C[C@@H](O)CC[C@@]43C)[C@@H]2CC[C@]12O[C@@H]1C[C@H](C)CN[C@H]1[C@H]2C", "System Under Test": "A673/TR/shEF", "Assigned Class": "NO"}
{"Compound": "CC[C@@]1(O)C(=O)OCc2c1cc1n(c2=O)Cc2cc3ccccc3nc2-1", "System Under Test": "A673/TR/shEF", "Assigned Class": "YES"}
{"Compound": "Cc1cccc(C)c1NC(=O)CN1CCCC1=O", "System Under Test": "A673/TR/shEF", "Assigned Class": "NO"}
{"Compound": "C[C@@H]1[C@H](O)[C@@H](C)/C=C/C=C/CC/C=C/C=C/C=C/C=C/C(O[C@H]2O[C@H](C)[C@@H](O)[C@H](N)[C@@H]2O)CC2O[C@](O)(CC(O)C(O)CCC(O)CC(O)CC(O)CC(=O)O[C@H]1C)CC(O)C2C(=O)O (stereo partly drawn)", "System Under Test": "A673/TR/shEF", "Assigned Class": "NO"}
{"Compound": "CN(C)[C@@H]1C(=O)C(C(N)=O)=C(O)[C@@]2(O)C(=O)C3=C(O)c4c(O)cccc4[C@@](C)(O)[C@H]3[C@H](O)[C@@H]12", "System Under Test": "A673/TR/shEF", "Assigned Class": "NO"}
{"Compound": "CN1[C@H]2CC(OC(=O)C(CO)c3ccccc3)C[C@H]1[C@H]1O[C@H]12 (stereo partly drawn)", "System Under Test": "A673/TR/shEF", "Assigned Class": "NO"}
{"Compound": "O=C(OC1CC2CCC(C1)[N+]21CCCC1)C(O)(c1ccccc1)c1ccccc1 (stereo not drawn)", "System Under Test": "A673/TR/shEF", "Assigned Class": "NO"}
{"Compound": "C[C@]12CC[C@H]3[C@@H](CCC4=CC(=O)CC[C@@]43C)[C@@H]1CC[C@@H]2OC(=O)CCC1CCCC1", "System Under Test": "A673/TR/shEF", "Assigned Class": "NO"}
